- assay.notes: Selectivity index, ratio of IC50 for cytotoxicity against human A549 cells to IC50 for anti-amoebic activity against Balamuthia mandrillaris CDC V093 (ATCC 50209) assessed as reduction in amoebae viability
- Type: toxicity, cell-based
- condition: read-out: Ratio IC50
parameter: selectivity ratio at 72 h

-- ask I am curious: what selectivity ratio at 72 h value has been reported for CC(C)[C@@H]1NC(=O)[C@@H](CCCNC(=N)N)NC(=O)[C@H]([C@@H](C)O)NC(=O)[C@@H](CCCN)NC(=O)[C@H](Cc2ccccc2)NC(=O)[C@@H](Cc2ccccc2)NC1=O ?
-- reply > 20

###

- assay.notes: Hemolytic activity in human red blood cells assessed as hemolysis at 100 uM incubated for 1 hr by absorbance based assay relative to control
- Type: toxicity, cell-based, Erythrocyte
- condition: read-out: Activity
Square brackets hold non-standard residues; d marks the D form. Peptide text beside a SMILES is read from it. dOrn = NCCC[C@@H](N)C(=O)O
Please respond with reported hemolysis at 1 h, 100 µM for every item in the list.

-- ask I am curious: what hemolysis at 1 h, 100 µM value has been reported for CC(C)[C@@H]1NC(=O)[C@@H](CCCNC(=N)N)NC(=O)[C@H]([C@@H](C)O)NC(=O)[C@@H](C)NC(=O)[C@H](Cc2ccccc2)NC(=O)[C@@H](Cc2ccccc2)NC1=O ?
-- reply < 10%

-- ask One more molecule: CC(C)[C@@H]1NC(=O)[C@@H](CCCNC(=N)N)NC(=O)[C@H](C)NC(=O)[C@@H](CCCN)NC(=O)[C@H](Cc2ccccc2)NC(=O)[C@@H](Cc2ccccc2)NC1=O (cyclo(A[dR]V[dF]F[dOrn]))
-- reply < 10%

-- ask One more molecule: CC(C)[C@@H]1NC(=O)[C@@H](CCCNC(=N)N)NC(=O)[C@H]([C@@H](C)O)NC(=O)[C@@H](CCCCN)NC(=O)[C@H](Cc2ccccc2)NC(=O)[C@@H](Cc2ccccc2)NC1=O
-- reply < 10%
